molecular target: 5-hydroxytryptamine receptor 2A (Rattus norvegicus)
pKi: −log10 of the molar value.
PARAMETER MEASURED: pKi

P = CN1CCN(C2=Cn3c(CO)ccc3Sc3ccccc32)CC1
Q = CN1CCCN(C2=Cn3cccc3Sc3ccc(Cl)cc32)CC1
R = O=C1NCCN1CCN1CCN(C2Cn3cccc3Sc3ccc(Cl)cc32)CC1 (stereo not drawn)
Sort these molecules on pKi so the largest reading comes first. When ranking, write the labels in the order the request describes.
Q, P, R

----------
target: 5-hydroxytryptamine receptor 2A (Rattus norvegicus, UniProt P14842)
Sequence (P14842 whole entry): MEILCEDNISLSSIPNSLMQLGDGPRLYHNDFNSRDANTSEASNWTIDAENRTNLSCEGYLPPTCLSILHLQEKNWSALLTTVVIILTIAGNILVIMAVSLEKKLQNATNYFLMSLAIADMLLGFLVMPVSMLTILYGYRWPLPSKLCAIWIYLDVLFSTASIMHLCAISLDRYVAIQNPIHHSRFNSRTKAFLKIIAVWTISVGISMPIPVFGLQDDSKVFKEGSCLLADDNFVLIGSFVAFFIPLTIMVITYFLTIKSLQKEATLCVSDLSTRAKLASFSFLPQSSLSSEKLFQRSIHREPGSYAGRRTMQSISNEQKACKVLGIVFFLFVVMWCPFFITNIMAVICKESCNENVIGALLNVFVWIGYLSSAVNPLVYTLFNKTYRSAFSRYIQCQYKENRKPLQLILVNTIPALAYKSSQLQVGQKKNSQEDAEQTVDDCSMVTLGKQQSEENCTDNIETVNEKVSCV
PARAMETER MEASURED: Ki (nM)

- COMPOUND: "CC(C)OCc1ccc2n1C=C(N1CCN(C)CC1)c1ccccc1S2"
  ENDPOINT UNIT: "nM"
  Ki: 217

a = COCc1ccc2n1CC(N1CCN(C)CC1)c1cc(Cl)ccc1S2 (stereo unspecified)
b = CN1CCN(C2=Cn3c(/C=N/O)ccc3Sc3ccccc32)CC1
c = CN1CCN(C2=Cn3cccc3Sc3ccc(Br)cc32)CC1
In this exercise, place the 3 compounds in ascending sequence of their recorded Ki. When ranking, write the labels in the order the request describes.
c, a, b
(c: 0.83 nM, a: 405 nM, b: 1980 nM)

P = CN1CCN(C2=C(C=O)n3c(C=O)ccc3Sc3ccccc32)CC1
Q = CN1CCN(C2=Cn3c(C=O)ccc3Sc3ccccc32)CC1
Kindly identify which of P and Q has the larger recorded Ki value. State the label of the item chosen.
P
